test.protocol: soluble on expression in E. coli; label from the status in PepcDB or PDB records

[
  {
    "sequence.input": "MMQPLYLVGPRGCGKTTIGMALAQATGFRFADTDRWLQSHVQMSVADIVEKEGWGGFRARETAALEAVSAPSTVVATGGGIILTEYNRRYMHRVGVVIYLCAPVSTLVNRLEAEPEADLRPTLTGKPLSEEVREVLEQRDALYRETAHYIIDATKAPAQVVSEIIAALPPSTQRLQGDVYT",
    "soluble on expression in E. coli": "not soluble"
  },
  {
    "sequence.input": "GPGSMDNTEETSRVTDQEERTLTETELPAPAEHVLEGDNSASEENRLHAFLIPLEDGEQFARANLQHRWYRGLTKMLWDEELERNGILIVERGESGRNNQSADEEEEEDDDGTDDCVAKMKREFRIKREQDKIVYEEDSTRTETLREEQNAISLIVTLMEEAMDRSILMNEAETMFALILDVLKPRVHYRYIYAWGVVTCCSFKPLKSEMDRLRPSDRHKPPYMRKSLPTCRVPLEPIYYLPDGGKKMRAMNELNDVRAIGWV",
    "soluble on expression in E. coli": "not soluble"
  }
]

----------
test.protocol: soluble on expression in E. coli; label from the status in PepcDB or PDB records
readout.label: soluble on expression in E. coli

[
  {
    "sequence.input": "MGSDKIHHHHHHMTIHISTAPCCWGVDDVKNPYLPAWRDVLGEASEAGYRGVELGPYGYLPLDPAVVSAALGENRLHVVAGTVFDDLVTLTNLPSLLRQTHDICALLKQLPPIDKEPGQRFAGPYLVIIDWGHEERDYAAGHSELAQRLDDGAWQTMMEHIRAICQIAWHEYGIRPVIHPHAGGYIEFADELARLVDDIPDDVAGLCLDTGHLYYAGMDPAASLRTYADRLDYIHFKDIDQSVFDDVMKQRIKFFDACARGVMCPIGRGVIDYPSLYRLIQTLGYEGYITVEQERDPRNANGSLEDVRSSRTYLANVGF",
    "readout.label": "soluble on expression in E. coli",
    "observed.measurement": "not soluble"
  },
  {
    "sequence.input": "MIEYTSGDILRCEADALVNTVNCVGVMGRGIALQFKNMYPANFKAYEAACKREEVQPGRMFVFETKQLTPPRLIINFPTKRHWRGKSRIEDIEAGLVDLVNVIRDKNIRSIAIPPLGAGLGGLDWKEVRPRIEHALGELEGVQVIVYEPNGAPASDKMAHVREVPKMTSGRAALVELMQRYLSGLLDPFVTLLEVHKLMYFMQEAGEPLRLDYIKHHYGPYAKNLRHVLNAIEGHLIAGYADGGDAPDKPLSLVPGAVAEAKSFLDQHEISRARFERVTRLVEGFESPYGLELLATVHWVIHREGATQSDSVKRQIYQWNDRKRQFTQRQLVIAEERLRSQGWLSPETTFTYMAGDPLEHHHHHH",
    "readout.label": "soluble on expression in E. coli",
    "observed.measurement": "not soluble"
  }
]

----------
test.protocol: soluble on expression in E. coli; label from the status in PepcDB or PDB records

[
  {
    "sequence.input": "GPFPPPGMSLPEYWGEEHVWWDGRAAFHGEVVRPACTLAMEDAWQIIDMGETPVRDLQNGFSGPERKFSLRLRNCEFNSQGGNLFSDSRIRVTFDGVRGETPDKFNLSGQAKGINLQIADVRGNIARAGKVMPAIPLTGNEEALDYTLRIVRNGKKLEAGNYFAVLGFRVDYE",
    "soluble on expression in E. coli": "soluble"
  },
  {
    "sequence.input": "MAHHHHHHMSEINIIKAFGILLCRLKKYNPVTTGDINKFEFLFLKASYADKHWTPPKGLHENNESGLETAVRETLEETGINKDKYKLLNYQKTLKYNVKDKPKETTYYLAMLLNNEENVILSDEHTDYKWIGSHESDTYNLPESLADLLKEAEEFLNKEQL",
    "soluble on expression in E. coli": "soluble"
  }
]

----------
test.protocol: soluble on expression in E. coli; label from the status in PepcDB or PDB records

[
  {
    "sequence.input": "MGSDKIHHHHHHVLADSTGHGLSAAMPIMRVASTFRAMVSKGFSLATLIYELNSKVHRENPDDRFVACIVLEVDFYRKKIHIWNGGMPPVYIKNHLETETVSDHYPVKNIIKFKSTNMALGILPSQTFVADIATVDLPVVGHACLFSDGLIEQYTNENKPFGIETLNSLFIQYASELIPYLTENFKKVFDGKPITDDITVCTLDFERLNEWHQQNNICLARSNMDGEFDWEVKLAGPMLLSAEYLNSLNQFLGMFGFATSFCQRVFTVVAELFSNAIDHGVLKLDSRLKSDPDGFELYHSIRDSSSARLTMNDWVKVSLVWCSITNELHICVADSGQGFKGYKNTVVDIPQLSGRGLSLVKTLSKTYELVSPGNITKVIME",
    "soluble on expression in E. coli": "not soluble"
  },
  {
    "sequence.input": "MSLKYSFIAQHKKTWPVGMMCQLMGVTSSGYYSYQKRKSTKTNNEPEHEELLEWVKKISESSKFSYGNRRIRKALNALGYPVGRRKTHRLMREAGIFVRYKKKYKVTTNSNHKQPIFDNVLNRKFQVNEPNRAYVSDMTYIPTHEGWLYLTVVIDLFSRKVVGWNMSSRMKADTVCDALTMAIWQRKPKAGLIVHSDRGSQYASKQYRSLLNQHGLVGSMSKKGDCWDNSVAESFFSRLKDELVHWRNYQTRREAKQDILDYMTMFYNNQRLHSSLDYLSPNQFENRYWGLMKKVAEGHHHHHH",
    "soluble on expression in E. coli": "not soluble"
  }
]

----------
test.protocol: soluble on expression in E. coli; label from the status in PepcDB or PDB records
readout.label: soluble on expression in E. coli

[
  {
    "sequence.input": "MHHHHHHMKEIATEYSFIKYTELELDDNGSIKQLSIPNKYNVIYAIAINDELVYIGKTKNLRKRINYYRTAINRKDKTSDSTKSALIHSALKEGSKVEFYARQCFNLSMTNELGTMTIATIDLEAPLFIKLFNPPWNIQHKKK",
    "observed.measurement": "soluble"
  },
  {
    "sequence.input": "MIQKTISETSPPPMFSDEEILTEDEIEEYLDNLKSKLPSFVIILLKNNLRGKRVTKKQLDKIVERITEVLSKGRRDDKTEELNKKLQTLEQKLDAIMKLTTMAVSTKTSEEIEKIKTNEKIEIENAPIKIKSEEKPEKPVEIEVSKKKETMDTGKKTETEEKVKEIEVPKPVEKTHEKVEETKTKGEIKKEVKKEVKLKKYELPKESPMGGSFMTPIEEEKEYRLNDIPEDAVSMTLVFKWLEFLISRGGMTYLPDILDYYNKIGWISNRVILKLLRFAKNMKITFDEEELRPRDKLSPSDHIVSLLYIEKLAGRPIDSEILEMLEIEIRRIKKWAIELQSI",
    "observed.measurement": "not soluble"
  },
  {
    "sequence.input": "MAELACFCYPHLENDSYKFIPFNNLAIKAMLTAKVDKKDMDKFYDSIIYGIAPPPQFKKRYNTNDNSRGMNFETIMFTKVAMLICEALNSLKVTQANVSNVLSRVVSIRHLENLVIRKENPQDILFHSKDLLLKSTLIAIGQSKEIETTITAEGGEIVFQNAAFTMWKLTYLEHQLMPILDQNFIEYKVTLNEDKPISDVHVKELVAELRWQYNKFAVITHGKGHYRIVKYSSVANHADRVYATFKSNVKTGVNNDFNLLDQRIIWQNWYAFTSSMKQGNTLDVCKRLLFQKMKPEKNPFKGLSTDRKMDEVSQVGV",
    "observed.measurement": "soluble"
  },
  {
    "sequence.input": "AYMYRSAFSVGLETRVTVPNVPIRFTKIFYNQQNHYDGSTGKFYCNIPGLYYFSYHITVYMKDVKVSLFKKDKAVLFTYDQYQEKNVDQASGSVLLHLEVGDQVWLQVYGDGDHNGLYADNVNDSTFTGFLLYHDTN",
    "observed.measurement": "soluble"
  }
]

Below is a list of sequences. For each, state its recorded soluble on expression in E. coli.
1. DIKMTQSPSSMYASLGERVTITCKASQDINSYLNWFQQKPGKSPKTLIYRTNRLVDGVPSRFSGSGSGQDYSLTISSLEYEDMGIYYCLQYDEFPYTFGSGTKLEIKRTVAAPSVFIFPPSDEQLKSGTASVVCLLNNFYPREAKVQWKVDNALQSGNSQESVTEQDSKDSTYSLSSTLTLSKADYEKHKVYACEVTHQGLSSPVTKSFNR
2. MDLRDLKTFLHLAESRHFGRSARAMHVSPSTLSRQIQRLEEDLGQPLFVRDNRTVTLTEAGEELRVFAQQTLLQYQQLRHTLDQQGPSLSGELHIFCSVTAAYSHLPPILDRFRAEHPSVEIKLTTGDAADAMEKVVTGEADLAIAGKPETLPGAVAFSMLENLAVVLIAPALPCPVRNQVSVDKPDWSTVPFIMADQGPVRRRIELWFRRHKISNPQIYATVGGHEAMVSMVALGCGVALLPEVVLENSPEPVRNRVMILERSDEKTPFELGVCAQKKRLHEPLIDAFWKILPN
3. MGNQSARQLSTHRKHVVHTWNTINSHDPQLLSDAISEAWLKSAELTPTWVWALVDLPETMHATYKENAQFLNIINQVRDFLNILIKVHKCDPEMIKTLSFRLGARHRHYMNEGNDNCFWAPFAQQLPIAMSKMYMRVVTEDSKIRRILRIRSRAAEKSEEEEVCESWRQFSCMLIESMKRGYEGCASEKTPLRLSITNSIISMASMRSSRSRSASHFLEPNMSPAIAPMCALLGSTESNSTTTTTQPSSPITPYRRRSMFRAGGALQRNSQDFTALRNRRMSSPNNPSILLNNCDIQLLKLTSQLSPLEDQVKQNRVPGRAHQQRRSITLLNFDHHHRARSPTT
4. MGSDKIHHHHHHMMRRRLPSLIALRAFEAVGRTGSVRAAGDELAVSHTVVSRHLQNLQKFLGVALVRGEGRGVILTEAGVSFHAQISQAFDIIARATTAARPSSLPTLNIWCIPGIANRLLLSRLPELTGPPRNWEVNLQPTLTHPDLSRAEADAEIVYADVIDSRGPLMSEILVRPRVFPVASPAYLARYPAITSLEDLSQIALIHEESTMQWTRWFELAGLDDLPPLRGQRLWHAHLAIEAARLGQGVALANDVLVEEDLRSGALVEVITSSVYMETYQLVALKERWDDPAIVALRNWLKQVLAELE
5. MHHHHHHSSGVDLGTENLYFQSMVDATRVPMDERFRTLKKKLEEGMVFTEYEQIPKKKANGIFSTAALPENAERSRIREVVPYEENRVELIPTKENNTGYINASHIKVVVGGAEWHYIATQGPLPHTCHDFWQMVWEQGVNVIAMVTAEEEGGRTKSHRYWPKLGSKHSSATYGKFKVTTKFRTDSVCYATTGLKVKHLLSGQERTVWHLQYTDWPDHGCPEDVQGFLSYLEEIQSVRRHTNSMLEGTKNRHPPIVVHCSAGVGRTGVLILSELMIYCLEHNEKVEVPMMLRLLREQRMFMIQTIAQYKFVYQVLIQFLQNSRLI
6. MNEEVRELERLVPAAATGDKTALQRIISIVYPQVLRYARTRLSGGRHPTPEDVAQEICLAVATSIAKFVDQGKPFMAFVYGIASNKVADAHRLYSRDLSNPTDEVPETEIDNDTPESFALLAAGSNRVQQLLDLLGDKPREILTLRVFVGLSAEETAEIVGSTPGAVRVAQHRALATLRKAIEQETGE
7. MVLLKEYRVILPVSVDEYQVGQLYSVAEASKNETGGGEGVEVLVNEPYEKDDGEKGQYTHKIYHLQSKVPTFVRMLAPEGALNIHEKAWNAYPYCRTVITNEYMKEDFLIKIETWHKPDLGTQENVHKLEPEAWKHVEAIYIDIADRSQVLSKDYKAEEDPAKFKSIKTGRGPLGPNWKQELVNQKDCPYMCAYKLVTVKFKWWGLQNKVENFIHKQEKRLFTNFHRQLFCWLDKWVDLTMDDIRRMEEETKRQLDEMRQKDPVKGMTADD

1. soluble
2. soluble
3. not soluble
4. not soluble
5. soluble
6. not soluble
7. soluble
